System Tested: CAS2 (Sordaria macrospora)
Construct: recombinant, obtained in-house
Sequence (C1L336 54-284): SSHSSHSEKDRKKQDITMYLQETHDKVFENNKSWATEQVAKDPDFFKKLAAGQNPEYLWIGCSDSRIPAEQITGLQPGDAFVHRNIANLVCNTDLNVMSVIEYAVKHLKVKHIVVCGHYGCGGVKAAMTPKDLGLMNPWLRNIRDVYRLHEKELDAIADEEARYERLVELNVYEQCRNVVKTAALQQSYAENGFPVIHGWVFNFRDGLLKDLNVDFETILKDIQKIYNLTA
Assay Info: biochemical
Design: stopped-flow CO2 hydration assay, phenol red 557 nm, pH 8.3, 15 min preincubation; KI by Cheng-Prusoff
Assign Ki to each entry below.
One number for each entry, in µM.

Past entries and their recorded results:
# Compound, Ki / µM
data = [
    ("Nc1ccc(S(N)(=O)=O)cc1Cl [compound 8]", 9.12),
    ("NS(=O)(=O)c1cc(Cl)c(Cl)c(S(N)(=O)=O)c1 [DCP]", 5.79),
    ("NS(=O)(=O)c1cc2c(cc1Cl)NCNS2(=O)=O [HCT]", 6.68),
    ("NS(=O)(=O)Cc1noc2ccccc12 [ZNS]", 1.89),
]

Could you report Ki for every entry in the following list?
1. O=C1NS(=O)(=O)c2ccccc21 [SAC]
2. Cc1onc(-c2ccccc2)c1-c1ccc(S(N)(=O)=O)cc1 [VLX]
3. Nc1ccc(S(N)(=O)=O)cc1F [compound 7]
4. Cc1ccc(S(N)(=O)=O)cc1 [compound 4]

Result:
1: 7.07; 2: 3.73; 3: 7.36; 4: 6.9
